# system: 15-lipoxygenase (Oryctolagus cuniculus)
# Construct: The lipoxygenase from rabbit reticulocytes is obtained in an electrophoretically and immunologically pure form; from tissue; host or cells: rabbit reticulocytes
# assay details: Inhibition of the activity of 15-lipoxygenase from rabbit reticulocytes
# Format: biochemical
# cond: 25° C.; pH 7.4; 0.53 mM linoleic acid; enzyme 25 nM; read-out: 15-LOX IC50
observable: IC50 (µM)
// return numeric value only (unit: µM, not printed)

Record Oc1c(Cl)cc(Cl)cc1Cc1cc(Cl)cc(Cl)c1O . Reported IC50: 9.5

====

# system: 15-lipoxygenase (Oryctolagus cuniculus, UniProt P12530)
# Construct: The lipoxygenase from rabbit reticulocytes is obtained in an electrophoretically and immunologically pure form; from tissue; host or cells: rabbit reticulocytes
# Sequence (P12530 whole entry): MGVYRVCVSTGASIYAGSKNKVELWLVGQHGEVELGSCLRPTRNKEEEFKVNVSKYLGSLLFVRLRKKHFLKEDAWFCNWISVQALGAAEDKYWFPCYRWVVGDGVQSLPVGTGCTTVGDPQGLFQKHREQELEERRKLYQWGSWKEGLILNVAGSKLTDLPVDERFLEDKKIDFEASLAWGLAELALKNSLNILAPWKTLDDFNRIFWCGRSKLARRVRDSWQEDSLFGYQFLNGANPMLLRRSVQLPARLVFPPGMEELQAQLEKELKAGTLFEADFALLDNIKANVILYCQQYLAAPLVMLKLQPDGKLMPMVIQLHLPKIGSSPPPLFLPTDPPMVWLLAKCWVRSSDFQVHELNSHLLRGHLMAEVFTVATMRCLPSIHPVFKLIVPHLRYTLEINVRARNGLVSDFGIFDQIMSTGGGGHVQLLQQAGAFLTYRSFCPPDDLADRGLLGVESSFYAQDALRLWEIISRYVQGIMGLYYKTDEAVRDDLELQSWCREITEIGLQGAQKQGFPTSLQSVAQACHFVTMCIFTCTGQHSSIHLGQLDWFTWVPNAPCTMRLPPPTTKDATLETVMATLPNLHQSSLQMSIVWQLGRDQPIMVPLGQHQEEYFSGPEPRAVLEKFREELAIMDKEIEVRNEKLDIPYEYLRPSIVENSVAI
# assay details: Inhibition of the activity of 15-lipoxygenase from rabbit reticulocytes
# Type: biochemical
Doc: threshold 5 µM (exclusive). Items with IC50 beneath it return YES; others return NO.

Could you please tell me whether IC50 recorded for Oc1c(Cl)cc(Cl)c(O)c1Cc1c(O)c(Cl)cc(Cl)c1O is less than 5 µM? YES

Could you please tell me whether IC50 recorded for Oc1c(Cl)cc(Br)cc1Cc1cc(Br)cc(Cl)c1O is less than 5 µM? YES

Could you please tell me whether IC50 recorded for Oc1c(Cl)cc(Cc2cc(Cl)c(O)c(Br)c2)cc1Br is less than 5 µM? NO

Could you please tell me whether IC50 recorded for Cc1cc(Cc2ccccc2)cc(Cl)c1O is less than 5 µM? NO

Could you please tell me whether IC50 recorded for Oc1c(Cl)cc(Cl)c(Cl)c1Cc1c(O)c(Cl)cc(Cl)c1Cl is less than 5 µM? YES

====

For each entry below, report its IC50 value.
# system: prostaglandin H synthase (Ovis aries)
# Construct: H synthase from sheep seminal vesicles is obtained by the method described in the literature; from tissue; host or cells: sheep seminal vesicles
# Sequence (P05979 25-600): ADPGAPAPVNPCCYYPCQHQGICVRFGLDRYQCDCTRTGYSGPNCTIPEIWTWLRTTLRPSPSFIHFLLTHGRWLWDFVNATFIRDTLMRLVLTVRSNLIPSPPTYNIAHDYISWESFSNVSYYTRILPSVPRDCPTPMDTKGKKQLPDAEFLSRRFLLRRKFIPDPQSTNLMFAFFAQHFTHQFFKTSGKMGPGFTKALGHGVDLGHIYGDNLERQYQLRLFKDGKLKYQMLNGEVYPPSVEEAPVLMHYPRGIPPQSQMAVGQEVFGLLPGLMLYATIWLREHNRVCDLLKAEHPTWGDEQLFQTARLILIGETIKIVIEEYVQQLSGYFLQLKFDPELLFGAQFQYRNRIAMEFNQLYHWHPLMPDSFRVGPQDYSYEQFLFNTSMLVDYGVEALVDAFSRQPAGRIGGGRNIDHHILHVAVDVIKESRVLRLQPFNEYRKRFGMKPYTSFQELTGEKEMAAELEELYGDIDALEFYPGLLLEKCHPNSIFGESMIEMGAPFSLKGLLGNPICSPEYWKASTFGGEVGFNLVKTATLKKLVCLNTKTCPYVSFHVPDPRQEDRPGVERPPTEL
# assay details: Inhibition of the activity of prostaglandin H synthase from sheep seminal vesicles
# Type: biochemical
// return numeric value only (unit: µM, not printed)

Hey, prostaglandin H synthase (Ovis aries) data for Oc1c(Br)cc(Cc2cc(Br)c(O)c(Br)c2)cc1Br : IC50 came out at 17

Hey, prostaglandin H synthase (Ovis aries) data for Oc1c(Cl)cc(Cc2cc(Cl)c(O)c(Br)c2)cc1Br : IC50 came out at 180

Hey, prostaglandin H synthase (Ovis aries) data for Oc1c(Cl)cc(Cl)c(O)c1Cc1c(O)c(Cl)cc(Cl)c1O : IC50 came out at 17

Hey, prostaglandin H synthase (Ovis aries) data for Oc1cc(Cl)ccc1Oc1ccc(Cl)cc1Cl [triclosan] : IC50 came out at 23

Hey, prostaglandin H synthase (Ovis aries) data for Oc1c(Br)cc(Br)cc1Cc1cc(Br)cc(Br)c1O : IC50 came out at 45

Hey, prostaglandin H synthase (Ovis aries) data for Oc1ccc(Cl)cc1Sc1cc(Cl)ccc1O [fenticlor] : IC50 came out at 15.5

Hey, prostaglandin H synthase (Ovis aries) data for Cc1cc(Cc2ccccc2)cc(Cl)c1O [2-Chloro-6-methyl-4-benzylphenol] : IC50 came out at 35

Hey, prostaglandin H synthase (Ovis aries) data for Oc1c(Cl)cc(Cl)c(Cl)c1Cc1c(O)c(Cl)cc(Cl)c1Cl : IC50 came out at 17

Hey, prostaglandin H synthase (Ovis aries) data for Oc1c(Cl)cc(Br)cc1Cc1cc(Br)cc(Cl)c1O : IC50 came out at 28

Hey, prostaglandin H synthase (Ovis aries) data for Cc1cc(Cl)cc(Cc2ccccc2)c1O [4-Chloro-2-methyl-6-benzylphenol] : IC50 came out at 30

Hey, prostaglandin H synthase (Ovis aries) data for Oc1ccc(Cl)cc1Cc1ccccc1 [chlorophene, 2-Benzyl-4-chlorophenol] : IC50 came out at 40

Where these numbers come from: patent US5185377A
